# assayTarget: T1, CrkII NSH3 domain (CrkII^NSH3, residues 134–191) (human, UniProt P46108-1 134-191)
# T1 construct: human CrkII residues 134-191, N-terminal SH3 domain
# procedureDetails: ITC; ternary, sequential; CrkII^NSH3 (400 μM, syringe) titrated into the peptide (16.8 µM) left in the cell after a first titration with 14-3-3ɣ; 25 °C, 20 mM HEPES pH 7.4, 150 mM NaCl, 1 mM TCEP
# conditionDescription: both partners purified
measurementName: Kd (nM)
Numbers only; they are read as nM.

Ask | Give Kd for the following binder: Ac-PLPPPLPKKILTRTQSLPTRR-NH2 (source: synthetic peptide, bought: Mimotopes) [PEAK3^tandem peptide, non-phosphorylated (residues 54–74; Ac-PLPPPLPKKILTRTQSLPTRR-NH2)]
Reply | 700
